assay: OD615 S. cerevisiae growth inhibition, permissive medium, pilot counter-assay, permissive growth control for S. cerevisiae lifespan shortening project (AID 705); conditions: OD615, 24 h, at 10 µM, hits give high values
measured endpoint: growth inhibition (%)
Provide only the numeric value, understood in %.

## Task Looking for the measured growth inhibition of CCOC(=O)Cc1csc(NC(=O)COc2ccc(OC)cc2)n1 , can you help?
## Result -22.4

## Task Looking for the measured growth inhibition of O=C(CC1Oc2ccccc2NC1=O)NC1CCCC1 (stereo unspecified) , can you help?
## Result 1.69

## Task Looking for the measured growth inhibition of CCN1C(=O)CC(N2CCN(c3ccc(Cl)cc3)CC2)C1=O (stereo unspecified) , can you help?
## Result -18.6

## Task Looking for the measured growth inhibition of C=CCn1c(SCC(=O)Nc2cc(C)nn2-c2ccccc2)nnc1C1CCCCC1 , can you help?
## Result -7.09

## Task Looking for the measured growth inhibition of CCOC(=O)c1ccc(N2CSC3=C(C#N)C(c4ccc(OC)cc4OC)CC(=O)N3C2)cc1 (stereo unspecified) , can you help?
## Result 6.21

## Task Looking for the measured growth inhibition of COC(=O)C1=CN(C)C=C(C(=O)OC)C1c1ccc(Cl)cc1Cl , can you help?
## Result -12.4

## Task Looking for the measured growth inhibition of CCOC(=O)c1c(C)n(C)c2ccc(OCC(O)CN3CCC(C)CC3)cc12 (stereo unspecified) , can you help?
## Result -1.52

## Task Looking for the measured growth inhibition of COC(=O)c1cc(-c2ccc3c(c2)OCO3)nc2ccccc12 , can you help?
## Result -14.1

## Task Looking for the measured growth inhibition of Cc1ccc(S(=O)(=O)N2CCCC(C(=O)O)C2)s1 (stereo unspecified) , can you help?
## Result -4.2

## Task Looking for the measured growth inhibition of COc1cc(C(=O)Nc2ccc(N(C)C)cc2)cc(OC)c1OC , can you help?
## Result -13.9

## Task Looking for the measured growth inhibition of Cn1cccc1Cc1nnc(SCC(=O)N2CCCC2)n1CCc1ccccc1 , can you help?
## Result 1.38

###

experiment: viability gain of MRP-1-high H69AR cells under doxorubicin, pilot screen, MRP-1 activator project, CellTiter-Glo, duplicate (AID 807); conditions: H69AR viability with doxorubicin, CellTiter-Glo luminescence; at 10 µM; hits give high values;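 also: compound pretreatment 18-22 h then 72 h combined with doxorubicin; 0% = doxorubicin alone and 100% = vehicle without doxorubicin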
Please provide measured viability increase for the entries that follow.
Provide only the numeric value, understood in %.

## Task Looking for the measured viability increase of COC(=O)C1C(O)=C(C(C)=N)C(=O)CC1(C)C (stereo unspecified) , can you help?
## Result -0.83

## Task Looking for the measured viability increase of CC(=O)Nc1ccc(S(=O)(=O)Nc2nc(C)cc(-n3nc(C)cc3C)n2)cc1 , can you help?
## Result -1.84

## Task Looking for the measured viability increase of O=C(Nc1nc2c(Cl)ccc(Cl)c2s1)c1ccco1 , can you help?
## Result -6.22

## Task Looking for the measured viability increase of CCOC(=O)c1ccc(N2C(=O)c3n[nH]c(C)c3C2c2ccccn2)cc1 (stereo unspecified) , can you help?
## Result 0.57

## Task Looking for the measured viability increase of O=C(NCCc1ccccc1)c1ccncc1 , can you help?
## Result -0.91

## Task Looking for the measured viability increase of O=C(NCCN1CCN(c2ccccc2F)CC1)C1CCCN(S(=O)(=O)c2cnc[nH]2)C1 (stereo unspecified) , can you help?
## Result -1.19

## Task Looking for the measured viability increase of Cn1c(Cn2c(=O)sc3ccccc32)nnc1SCC(=O)NCc1ccccc1 , can you help?
## Result -0.73

## Task Looking for the measured viability increase of Cc1ccc(N2C(=O)c3ccccc3C2Nc2ccccc2F)nc1 (stereo unspecified) , can you help?
## Result -1.31

## Task Looking for the measured viability increase of COC(=O)c1ccc2c(=O)n3c(nc2c1)SCC(c1ccccc1)=N3 , can you help?
## Result -1.81

## Task Looking for the measured viability increase of CCOc1ccc(CCNC(=O)c2nnc(Cc3ccc(F)cc3)o2)cc1OCC , can you help?
## Result -2.55

## Task Looking for the measured viability increase of NC(=O)CC1NC(=O)c2ccccc21 (stereo unspecified) , can you help?
## Result 0.12

## Task Looking for the measured viability increase of O=C1c2oc3ccc(Cl)cc3c(=O)c2C(c2ccco2)N1CCN1CCOCC1 (stereo unspecified) , can you help?
## Result -5.51

## Task Looking for the measured viability increase of CCP(=O)(c1ccccc1)C(C)(C)O (stereo unspecified) , can you help?
## Result -2.44

## Task Looking for the measured viability increase of CCOC(=O)C1C(=O)Oc2ccc3ccccc3c2C1C1CCOC1=O (stereo unspecified) , can you help?
## Result -2.53

## Task Looking for the measured viability increase of CC(=O)C1C(c2ccc(OC(F)F)cc2)NC(=O)NC1(O)C(F)(F)F (stereo unspecified) , can you help?
## Result 0.74

## Task Looking for the measured viability increase of COC(=O)CCSCC(=O)Nc1nnc(C)s1 , can you help?
## Result -0.31

## Task Looking for the measured viability increase of COC(=O)c1c(NC(=O)CCCC(=O)O)sc(C)c1C , can you help?
## Result -3.07

## Task Looking for the measured viability increase of O=C(O)c1cc(S(=O)(=O)Nc2ccc3c(c2)OCCO3)c(Cl)cc1Cl , can you help?
## Result -1.04

## Task Looking for the measured viability increase of CC1CCCC(C)N1CCCNC(=O)c1cc2c(=O)n(C)c3ccccc3c2n1C (stereo unspecified) , can you help?
## Result -6.03

## Task Looking for the measured viability increase of CN1CCN(C(=O)c2cn(C)c3ccc(S(=O)(=O)N(C)C4CCCCC4)cc3c2=O)CC1 , can you help?
## Result -2.39

## Task Looking for the measured viability increase of Cc1cc(C(F)(F)F)n2ncc(C(=O)O)c2n1 , can you help?
## Result -0.34

## Task Looking for the measured viability increase of Nc1c(C(=O)CCC(=O)O)oc2ccc(Cl)cc12 , can you help?
## Result -2.01

## Task Looking for the measured viability increase of O=S(=O)(Cc1ccccc1)N1CCn2c(nc3ccccc32)C1 , can you help?
## Result -0.75

## Task Looking for the measured viability increase of O=C(NCc1ccccc1)c1ccc(/C=N/O)nc1 , can you help?
## Result -0.06

## Task Looking for the measured viability increase of CSCCC(/C(O)=C(\C#N)c1nc2ccccc2[nH]1)N1C(=O)c2ccccc2C1=O (stereo unspecified) , can you help?
## Result 0

## Task Looking for the measured viability increase of Cc1sc2ncn(CC(=O)NCc3ccccn3)c(=O)c2c1S(=O)(=O)N1CCOCC1 , can you help?
## Result 1.3

## Task Looking for the measured viability increase of Cc1cnn(-c2ccc3nnc(-c4ccc(Br)cc4)n3n2)c1 , can you help?
## Result -4.96

## Task Looking for the measured viability increase of Fc1ccc(OCc2nc(-c3ccc(Br)o3)no2)c(F)c1 , can you help?
## Result 2.67

## Task Looking for the measured viability increase of Cc1nc(C)c(C(=O)Nc2cccc(C)c2C)o1 , can you help?
## Result -3.05

## Task Looking for the measured viability increase of CCN(CC)CCCN1C(=O)C(O)=C(C(=O)c2ccc(C)o2)C1c1cccs1 (stereo unspecified) , can you help?
## Result -4.04

## Task Looking for the measured viability increase of COc1ccccc1-c1nnc(SCC(=O)N2CCOCC2)o1 , can you help?
## Result -3.69

## Task Looking for the measured viability increase of O=C(CCSCCc1ccccn1)Nc1nccs1 , can you help?
## Result -0.56

## Task Looking for the measured viability increase of COc1ccc(N2C(=O)CCC(C(=O)NCc3ccccn3)C2c2ccc(OC)c(OC)c2)cc1 (stereo unspecified) , can you help?
## Result -1.53

## Task Looking for the measured viability increase of O=C(CCn1c(=O)oc2ccccc21)NCc1ccc2c(c1)OCO2 , can you help?
## Result -2.85

## Task Looking for the measured viability increase of COC(=O)c1cc(OC)c(OC)cc1NC(=O)C1CCCO1 (stereo unspecified) , can you help?
## Result -0.93

## Task Looking for the measured viability increase of CCOCCCNC(=O)Cn1nc(-c2ccccc2)ccc1=O , can you help?
## Result 1.86

## Task Looking for the measured viability increase of COc1ccccc1S(=O)Cc1ccc(C(=O)NCc2ccccc2Cl)o1 (stereo unspecified) , can you help?
## Result -1.27

## Task Looking for the measured viability increase of Cn1c(=O)c2c(SCC(=O)N3CCN(c4ccccc4)CC3)nc(C3CC3)nc2n(C)c1=O , can you help?
## Result -2.93

## Task Looking for the measured viability increase of CC(=O)N(c1ccccc1)C1SC(=O)N(c2ccccc2)C1=O (stereo unspecified) , can you help?
## Result -0.06

## Task Looking for the measured viability increase of CCOc1ccc(NC2c3ccccc3C(=O)N2c2ccc(Cl)cn2)cc1 (stereo unspecified) , can you help?
## Result -1.1

## Task Looking for the measured viability increase of COc1ccc(OC)c(C2=Nn3c(nnc3-c3ccncc3)SC2)c1 , can you help?
## Result -2.51

## Task Looking for the measured viability increase of O=C(Nc1cccc(C(F)(F)F)c1)c1cnc2n(c1=O)CCS2 , can you help?
## Result 0.63

## Task Looking for the measured viability increase of COCCNC(=O)CN1C(=O)COc2ccc(Cl)cc21 , can you help?
## Result -1.25

## Task Looking for the measured viability increase of COc1ccc(-c2nnc3ccc(SCC(=O)N4CCCCC4)nn23)cc1OC , can you help?
## Result -4.61

## Task Looking for the measured viability increase of CCC(Sc1nncn1C)C(=O)Nc1nnc(-c2ccccc2Cl)s1 (stereo unspecified) , can you help?
## Result -0.85

## Task Looking for the measured viability increase of CC(C)COC(=O)c1cc(=O)[nH]c2ccccc12 , can you help?
## Result -2.47

This collection of values is drawn from PubChem BioAssay.
